Test system: Calu-3
measurement_notes: cell viability relative to DMSO; higher = less toxic
condition_notes: 72 h; 1000 nM
Known cell viability of a selection of compounds

>  <compound>
O=C1[C@@H]2[C@H]3CC[C@H](C3)[C@@H]2C(=O)N1CCCCN1CCN(c2ncccn2)CC1

>  <unit_name>
%

>  <cell viability>
86.8

$$$$
>  <compound>
O=C(O)c1ccc(N2N=C(Cc3ccccc3)/C(=C\c3ccc(-c4ccccc4F)o3)C2=O)cc1

>  <unit_name>
%

>  <cell viability>
105

$$$$
>  <compound>
N[C@]1(C(=O)O)CC[C@@H](C(=O)O)C1 [cis-ACPD]

>  <unit_name>
%

>  <cell viability>
107

$$$$
>  <compound>
O=S1(=O)OC(c2ccc(O)cc2)(c2ccc(O)cc2)c2ccccc21

>  <unit_name>
%

>  <cell viability>
110

$$$$
>  <compound>
Fc1ccc(-n2cc(CCCCN3CCC4(CC3)OCc3ccccc34)c3ccccc32)cc1

>  <unit_name>
%

>  <cell viability>
104

$$$$
>  <compound>
COCC1=C(C(=O)O)N2C(=O)[C@@H](NC(=O)/C(=N\OC)c3csc(N)n3)[C@H]2SC1

>  <unit_name>
%

>  <cell viability>
99.4

$$$$
>  <compound>
C[C@]12CC[C@@H](O)C[C@H]1CC[C@@H]1[C@@H]2CC[C@]2(C)C(=O)CC[C@@H]12 [3-alpha-hydroxy-5-beta-androstan-17-one]

>  <unit_name>
%

>  <cell viability>
97.8

$$$$
>  <compound>
Fc1cc(-c2cccc3ncc(-c4cnn(C5CCNCC5)c4)nc23)cc(F)c1CN1CCOCC1

>  <unit_name>
%

>  <cell viability>
104

$$$$

====

Tested on: Vero E6
measurement_notes: cell viability relative to DMSO; higher = less toxic
condition_notes: 72 h; 1 nM
Known cell viability of a selection of compounds

>  <compound>
CN(C)CC/C=C1/c2ccccc2Sc2ccc(Cl)cc21

>  <cell viability, %>
103

$$$$
>  <compound>
CC(NC(=O)c1ccccc1/N=C/c1c(O)ccc2ccccc12)c1ccccc1 (stereo not drawn)

>  <cell viability, %>
97.1

$$$$
>  <compound>
CNC(=O)c1ccc2c(c1)CCO[C@H]2CCN1CCN(c2ccc(C(N)=O)cc2)CC1

>  <cell viability, %>
105

$$$$
>  <compound>
Cc1ccc(C(=O)Nc2ccc(CN3CCN(C)CC3)c(C(F)(F)F)c2)cc1C#Cc1cnc2[nH]ncc2c1

>  <cell viability, %>
103

$$$$
>  <compound>
N#Cc1cnc2cnc(NCc3cccnc3)cc2c1Nc1ccc(F)c(Cl)c1

>  <cell viability, %>
97.2

$$$$
>  <compound>
COCc1c(-c2ccc(NC(=O)Nc3cc(C(F)(F)F)ccc3F)c(F)c2)c2c(N)ncnn2c1CN1CCOCC1

>  <cell viability, %>
95.7

$$$$
>  <compound>
O=c1cc(N2CCOCC2)oc2c(-c3cccc4c3sc3ccccc34)cccc12

>  <cell viability, %>
104

$$$$
>  <compound>
CO/N=C1\CN(c2nc3c(cc2F)c(=O)c(C(=O)O)cn3C2CC2)CC1CN (stereo not drawn)

>  <cell viability, %>
103

$$$$

====

Tested on: Calu-3
measurement_notes: cell viability relative to DMSO; higher = less toxic
condition_notes: 72 h; 10000 nM

>  <compound>
CO[C@H]1/C=C/O[C@@]2(C)Oc3c(C)c(O)c4c(O)c(c(/C=N/N5CCN(C6CCCC6)CC5)c(O)c4c3C2=O)NC(=O)/C(C)=C\C=C\[C@H](C)[C@H](O)[C@@H](C)[C@@H](O)[C@@H](C)[C@H](OC(C)=O)[C@@H]1C [rifapentine]

>  <cell viability / %>
88.2

$$$$
>  <compound>
CC=CC1=C(C(=O)O)N2C(=O)[C@@H](NC(=O)[C@H](N)c3ccc(O)cc3)[C@H]2SC1 (mixture of isomers) [cefprozil]

>  <cell viability / %>
95.5

$$$$
>  <compound>
CNC(=O)c1ccc2c(c1)CCO[C@H]2CCN1CCN(c2ccc(C(N)=O)cc2)CC1

>  <cell viability / %>
100

$$$$
>  <compound>
C=CCc1ccc(O)c(-c2ccc(O)c(CC=C)c2)c1 [honokiol]

>  <cell viability / %>
97

$$$$
>  <compound>
OCc1ccccc1O [salicyl-alcohol]

>  <cell viability / %>
96.9

$$$$
>  <compound>
CS(=O)(=O)N1CCc2c(-c3cnc(N)nc3)nc(N3CCOCC3)nc21

>  <cell viability / %>
29.3

$$$$
>  <compound>
CN1Cc2c(N)cccc2C(c2ccccc2)C1 (configuration not stated) [nomifensine]

>  <cell viability / %>
96.8

$$$$
>  <compound>
CC(C)(C)C#Cc1cc(N(C(=O)[C@H]2CC[C@H](C)CC2)[C@H]2CC[C@@H](O)CC2)c(C(=O)O)s1 [VX-222]

>  <cell viability / %>
104

$$$$
>  <compound>
O=C(/C=C/c1ccc(O)c(O)c1)O[C@H](Cc1ccc(O)c(O)c1)C(=O)O [rosmarinic-acid]

>  <cell viability / %>
94.5

$$$$
>  <compound>
Cc1ncc(CO)c(CO)c1O [pyridoxine]

>  <cell viability / %>
98.6

$$$$
>  <compound>
CC(C)N(CCCCOCC(=O)NS(C)(=O)=O)c1cnc(-c2ccccc2)c(-c2ccccc2)n1 [selexipag]

>  <cell viability / %>
105

$$$$
>  <compound>
CCN1CCN(C(=O)Cc2ccc(Nc3ncc(F)c(Nc4ccc(C(=O)Nc5ccccc5Cl)cc4)n3)cc2)CC1 [aurora-a-inhibitor-i]

>  <cell viability / %>
84.5

$$$$
>  <compound>
CC(C)N1CCN(c2ccc(C(=O)c3c(-c4ccc(O)cc4)sc4cc(O)ccc34)cc2)CC1 [Y-134]

>  <cell viability / %>
72.4

$$$$
>  <compound>
CC(C)(C)NCC(O)c1cc(Br)no1 (configuration not stated) [broxaterol]

>  <cell viability / %>
95.9

$$$$
>  <compound>
O=C(CSc1nc2c(c(=O)n1-c1ccccc1)SCC2)Nc1ccc(-c2ccccc2)cn1 [IWP-L6]

>  <cell viability / %>
87.5

$$$$
>  <compound>
CC(CNC1CCCCC1)OC(=O)c1ccccc1 (configuration not stated) [hexylcaine]

>  <cell viability / %>
95.5

$$$$
>  <compound>
CCCCC#Cc1nc(NC)c2ncn([C@@H]3O[C@H](CO)[C@@H](O)[C@H]3O)c2n1 [HEMADO]

>  <cell viability / %>
91.1

$$$$

====

Test system: Caco-2
measurement_notes: relative viability EC50 (midpoint between 100% and the lowest measured viability); higher = less toxic
condition_notes: 72 h

>  <molecule>
Sc1ncnc2nc[nH]c12

>  <relative viability EC50>
> 10 µM

$$$$
>  <molecule>
O=C(O)CCCc1ccccc1 [phenylbutyrate]

>  <relative viability EC50>
> 10 µM

$$$$
>  <molecule>
COc1ccc(C2=N[C@@H](c3ccc(Cl)cc3)[C@@H](c3ccc(Cl)cc3)N2C(=O)N2CCNC(=O)C2)c(OC(C)C)c1

>  <relative viability EC50>
> 10 µM

$$$$

====

System: Calu-3
measurement_notes: cell viability relative to DMSO; higher = less toxic
condition_notes: 72 h; 1 nM
Known cell viability of a selection of compounds
assay_readout: cell viability (%)

>  <compound>
Cc1cc(C(=O)Nc2nc3cccc(Cl)c3n2[C@@H]2CCCCN(C(=O)/C=C/CN(C)C)C2)ccn1 [EGF816]

>  <assay_readout>
cell viability

>  <unit_name>
%

>  <readout_number>
102

$$$$
>  <compound>
NC1CCN(c2c(F)cc3c(=O)c(C(=O)O)cn(C4CC4)c3c2Cl)C1 (stereo not drawn) [clinafloxacin]

>  <assay_readout>
cell viability

>  <unit_name>
%

>  <readout_number>
95.5

$$$$
>  <compound>
CC(C)[N+](C)(CCOC(=O)C1c2ccccc2Oc2ccccc21)C(C)C [propantheline]

>  <assay_readout>
cell viability

>  <unit_name>
%

>  <readout_number>
93.8

$$$$
>  <compound>
CC(NC(=O)c1ccccc1/N=C/c1c(O)ccc2ccccc12)c1ccccc1 (stereo not drawn) [sirtinol]

>  <assay_readout>
cell viability

>  <unit_name>
%

>  <readout_number>
96.5

$$$$
>  <compound>
CC(C)S(=O)(=O)NC[C@H](C)c1ccc(-c2ccc(CCNS(C)(=O)=O)cc2)cc1 [mibampator]

>  <assay_readout>
cell viability

>  <unit_name>
%

>  <readout_number>
101

$$$$
>  <compound>
CN(C)CC/C=C1/c2ccccc2Sc2ccc(Cl)cc21 [chlorprothixene]

>  <assay_readout>
cell viability

>  <unit_name>
%

>  <readout_number>
103

$$$$
>  <compound>
Oc1ccc(Cl)c2c1CCC2 [chlorindanol]

>  <assay_readout>
cell viability

>  <unit_name>
%

>  <readout_number>
99.8

$$$$
>  <compound>
CC=CC1=C(C(=O)O)N2C(=O)[C@@H](NC(=O)[C@H](N)c3ccc(O)cc3)[C@H]2SC1 (mixture of isomers) [cefprozil]

>  <assay_readout>
cell viability

>  <unit_name>
%

>  <readout_number>
86.7

$$$$
>  <compound>
CNC(=O)c1ccc2c(c1)CCO[C@H]2CCN1CCN(c2ccc(C(N)=O)cc2)CC1

>  <assay_readout>
cell viability

>  <unit_name>
%

>  <readout_number>
99.7

$$$$
>  <compound>
CCC(CC)[C@H](NC(C)=O)[C@@H]1[C@H](O)[C@@H](C(=O)O)C[C@H]1NC(=N)N [peramivir]

>  <assay_readout>
cell viability

>  <unit_name>
%

>  <readout_number>
93.3

$$$$
>  <compound>
CCOc1ccc(NC(C)=O)cc1 [phenacetin]

>  <assay_readout>
cell viability

>  <unit_name>
%

>  <readout_number>
90.3

$$$$
>  <compound>
CC(C)(C)NCC(O)c1cc(Br)no1 (stereo not drawn) [broxaterol]

>  <assay_readout>
cell viability

>  <unit_name>
%

>  <readout_number>
111

$$$$
>  <compound>
COc1cc2c(NC3CCN(C)CC3)nc(N3CCCN(C)CC3)nc2cc1OCCOCCN(C)C [UNC0321]

>  <assay_readout>
cell viability

>  <unit_name>
%

>  <readout_number>
89.5

$$$$
>  <compound>
COCC1=C(C(=O)O)N2C(=O)[C@@H](NC(=O)/C(=N\OC)c3csc(N)n3)[C@H]2SC1 [cefpodoxime]

>  <assay_readout>
cell viability

>  <unit_name>
%

>  <readout_number>
98

$$$$
>  <compound>
O=C(CSc1nc2c(c(=O)n1-c1ccccc1)SCC2)Nc1ccc(-c2ccccc2)cn1 [IWP-L6]

>  <assay_readout>
cell viability

>  <unit_name>
%

>  <readout_number>
94.4

$$$$
>  <compound>
CC(C)c1cc(-c2n[nH]c(=O)n2-c2ccc3c(ccn3C)c2)c(O)cc1O [ganetespib]

>  <assay_readout>
cell viability

>  <unit_name>
%

>  <readout_number>
91.5

$$$$
>  <compound>
CN(C)C/C=C/C(=O)Nc1ccc(C(=O)Nc2cccc(Nc3ncc(Cl)c(-c4c[nH]c5ccccc45)n3)c2)cc1 [THZ1]

>  <assay_readout>
cell viability

>  <unit_name>
%

>  <readout_number>
96.1

$$$$
>  <compound>
OCCN1CCN(CCCN2c3ccccc3C=Cc3ccccc32)CC1 [opipramol]

>  <assay_readout>
cell viability

>  <unit_name>
%

>  <readout_number>
100

$$$$
